Just for reference, PubChem BioAssay AID1996 is where these values come from.

reported conditions: buffer; pH 7.4; 200.0 µM
Parameter class (string): assigned from measured solubility kinetic. Ranges: b0: < 6 µg/mL; b1: ≥ 6 µg/mL and < 40 µg/mL; b2: ≥ 40 µg/mL

compound | category
Cc1cc(=O)[nH]c(SCC(=O)NC2CCCc3ccccc32)n1 (centres undefined) | b1
O=C(NCCCNC(=O)c1cnccn1)c1cccc(Cl)c1 | b2
Cc1ccc(N2C(=O)CS/C2=N\C(=S)Nc2ccccc2)cc1 | b0
COc1ccc(NC(=O)c2sc3nc(C)cc(C)c3c2N)c(OC)c1 | b0
CC(C)CC(=O)Nc1ccc(S(=O)(=O)Nc2nccs2)cc1 | b2
O=C(Nc1ccc(F)cc1)Oc1ccccc1N1CCOCC1 | b1
CCCCn1c(O)c(C(C)=NCc2cccnc2)c(=O)[nH]c1=O | b2
CC(=O)Nc1ccccc1C(F)(F)F | b0
COc1ccc(C(=O)CN2C(=O)c3ccccc3C2=O)c(OC)c1 | b0
COc1ccc(CNC(=O)C2CCN(S(C)(=O)=O)CC2)cc1 | b2
CC(C)c1ccc(NS(=O)(=O)c2ccc3c(c2)oc(=O)n3C)cc1 | b0
O=C(COC(=O)c1ccc2ccccc2c1O)NCc1ccccc1 | b0
COC(=O)c1ccc(CN2C(=O)c3ccccc3C2=O)o1 | b2
CC(=O)Nc1ccc(C(=O)OCC(=O)Nc2ccc(N3CCOCC3)cc2)cc1 | b1
CC(C)(C)c1ccc(C(=O)NCCCNC(=O)c2cccnc2)cc1 | b2
O=C(Nc1nnc(-c2ccccc2)o1)c1cccc(S(=O)(=O)N2CCOCC2)c1 | b2
CN(C)CCCn1c(=S)[nH]c2sc3c(c2c1=O)CCCC3 | b2
Cc1cccnc1NC(=S)NCc1ccco1 | b1
O=C(O)c1ccccc1/C=N/NC(=S)NCc1ccccc1 | b2
Cc1ccc(S(=O)(=O)CCC(=O)OCc2nnc(-c3ccccc3)o2)cc1 | b2
NC(=O)C1CCN(C(=O)/C(=C/c2ccccc2)NC(=O)c2ccccc2)CC1 | b2
